Tested on: male mice (ICR)
Assay: Muscle relaxation: grip strength
Type: in vivo
Settings: Mus musculus, ip; intraperitoneal, at time of maximum effect; 50% of activity vs vehicle only; read-out: MR test ED50, III = Grip strength
Field: label. Allowed values: t (ED50 < 70 mg/kg) or f (ED50 >= 70 mg/kg).

Below are worked cases with known answers.
# compound, measurement_target, class_assignment
rows = [
    ("CC(C)C(OC(N)=O)C(O)c1ccccc1Cl (racemic)", "male mice (ICR)", "f"),
    ("C[C@H](OC(N)=O)[C@H](O)c1ccccc1Cl", "male mice (ICR)", "f"),
    ("CC(OC(=O)NC1CC1)C(O)c1ccccc1Cl (racemic)", "male mice (ICR)", "t"),
    ("CCCNC(=O)O[C@@H](C)[C@@H](O)c1ccccc1Cl", "male mice (ICR)", "t"),
]

Please find the next compound below.
## Task Please indicate whether the reported ED50 of CC[C@@H](OC(N)=O)[C@H](O)c1ccccc1Cl is strictly below 70 mg/kg.
## Result f

###

System: male mice (ICR)
Experiment: Muscle relaxation: endurance time on rotarod rotating at accelerated speed
Format: in vivo
Conditions: Mus musculus, ip; intraperitoneal, at time of maximum effect; 50% of activity vs vehicle only; read-out: MR test ED50, I = Acc. Rotarod
Categorized via ED50: bottom bin: < 50 mg/kg; middle bin: ≥ 50 mg/kg and < 70 mg/kg; top bin: ≥ 70 mg/kg

Below, 5 molecules whose answers are already recorded.
# molecule, measurement_target, class_assignment
data = [
    ("CC(C)NC(=O)O[C@@H](C)[C@@H](O)c1ccccc1Cl", "male mice (ICR)", "top bin"),
    ("CC(OC(N)=O)C(O)c1ccccc1Cl (racemic)", "male mice (ICR)", "middle bin"),
    ("C[C@H](OC(N)=O)[C@H](O)c1ccccc1Cl", "male mice (ICR)", "middle bin"),
    ("CC(C)C(OC(N)=O)C(O)c1ccccc1Cl (racemic)", "male mice (ICR)", "top bin"),
    ("C[C@H](OC(=O)NC1CC1)[C@@H](O)c1ccccc1Cl", "male mice (ICR)", "middle bin"),
]

## Task Which bin, given its ED50, does C[C@H](OC(N)=O)[C@@H](O)c1ccccc1Cl occupy?
## Result bottom bin

## Task // return the class label for C[C@@H](OC(N)=O)[C@H](O)c1ccccc1Cl
## Result middle bin

## Task // return the class label for CNC(=O)OC(C)C(O)c1ccccc1Cl (racemic)
## Result bottom bin

###

Test system: male mice (ICR)
Experiment: Muscle relaxation: residence time on rotarod rotating at fixed speed (15 r.p.m.)
Type: in vivo
Settings: Mus musculus, ip; intraperitoneal, at time of maximum effect; 50% of activity vs vehicle only; read-out: MR test ED50, II = Fixed 15 r.p.m. Rotarod
value_kind: ED50 (mg/kg)
Numbers only, in mg/kg.

The examples below pair each entry with its known result.
# molecule, ED50, mg/kg
data = [
    ("CC(C)NC(=O)O[C@H](C)[C@H](O)c1ccccc1Cl", 44.3),
    ("C[C@@H](OC(N)=O)[C@H](O)c1ccccc1Cl", 76.5),
    ("C[C@@H](OC(=O)NC1CC1)[C@H](O)c1ccccc1Cl (single isomer, unassigned)", 18.3),
]

For every record below, what is its ED50?
1. CNC(=O)O[C@H](C)[C@H](O)c1ccccc1Cl
2. CNC(=O)O[C@@H](C)[C@@H](O)c1ccccc1Cl
3. C[C@@H](OC(N)=O)[C@@H](O)c1ccccc1Cl
4. CNC(=O)OC(C)C(O)c1ccccc1Cl (racemic)
5. CC(C)NC(=O)O[C@@H](C)[C@@H](O)c1ccccc1Cl

## Result
1: 25.1; 2: 42.8; 3: 65; 4: 41; 5: 66.4

###

I'd be grateful if you could share measured responders at 200 mg/kg for these entries.
Tested on: male ICR mice
Assay: MES (Maximal Electroshock Seizure) test in mice
Conditions: Mus musculus, po, read-out: MES test (po) Protection %
Give bare numbers, in %.

# compound, responders at 200 mg/kg (%)
data = [
    ("CC(OC(=O)NC1CC1)C(O)c1ccccc1Cl (racemic)", 100),
    ("CCCNC(=O)OC(C)C(O)c1ccccc1Cl (racemic)", 25),
    ("C[C@@H](OC(N)=O)[C@H](O)c1ccc(Cl)cc1Cl", 0),
    ("C[C@@H](OC(=O)NC1CC1)[C@H](O)c1ccccc1Cl (single isomer, unassigned)", 25),
    ("CCCNC(=O)O[C@H](C)[C@H](O)c1ccccc1Cl", 25),
]

Give measured responders at 200 mg/kg for every item shown.
1. C[C@H](OC(=O)NC1CC1)[C@@H](O)c1ccccc1Cl
2. CCCNC(=O)O[C@@H](C)[C@@H](O)c1ccccc1Cl
3. CNC(=O)OC(C)C(O)c1ccccc1Cl (racemic)
4. CC(C)NC(=O)OC(C)C(O)c1ccccc1Cl (racemic)

## Result
1: 100; 2: 25; 3: 75; 4: 25

###

Tested on: male mice (ICR)
Test: Muscle relaxation: grip strength
Type: in vivo
Conditions: Mus musculus, ip; intraperitoneal, at time of maximum effect; 50% of activity vs vehicle only; read-out: MR test ED50, III = Grip strength
value_kind: ED50 (mg/kg)
Answers are plain numbers, in mg/kg.

Consider the reported ED50 for these molecules:
# molecule, measurement_target, value_kind, test_result
measured = [
    ("CC(C)[C@H](OC(N)=O)[C@@H](O)c1ccccc1Cl", "male mice (ICR)", "ED50", 104),
    ("CC(OC(N)=O)C(O)c1ccccc1Cl (racemic)", "male mice (ICR)", "ED50", 72.6),
]

Read the next record carefully.
## Task Give ED50 for C[C@@H](OC(N)=O)[C@H](O)c1ccccc1I
## Result 46

###

System: male mice (ICR)
Experiment: Muscle relaxation: wire hang
Assay type: in vivo
Details: Mus musculus; intraperitoneal, at time of maximum effect; 50% of activity vs vehicle only; read-out: MR test ED50, IV = Wire hang
Experimental: For testing, male mice (ICR) were purchased from ORIENT BIO INC. (Korea), divided into several groups with 6 mice in each group, and were adapted for 4-5 days. The mice having the weight ranging from 19 g to 26 g were employed for the test. The pharmacological effect of the test compounds on muscle relaxation was evaluated by Rotarod test, grip strength test, and muscular force (wire hang) test. All mice were adapted to the test environment at one hour before starting the tests. […]
value_kind: ED50 (mg/kg)
Numbers only, in mg/kg.

# compound, unit_string, ED50
data = [
    ("CC(OC(N)=O)C(O)c1ccccc1Cl (racemic) [Compound 3]", "mg/kg", 34),
]

Items follow; give ED50 for each.
1. CCCNC(=O)O[C@@H](C)[C@@H](O)c1ccccc1Cl [Compound 16]
2. CC(C)NC(=O)OC(C)C(O)c1ccccc1Cl (racemic) [Compound 31]
3. C[C@H](OC(N)=O)[C@@H](O)c1ccccc1I [Compound 65]
4. C[C@H](OC(=O)NC1CC1)[C@@H](O)c1ccccc1Cl [Compound 18]
5. CC(OC(=O)NC1CC1)C(O)c1ccccc1Cl (racemic) [Compound 32]
6. CNC(=O)O[C@@H](C)[C@@H](O)c1ccccc1Cl [Compound 15]
7. C[C@@H](OC(=O)NC1CC1)[C@H](O)c1ccccc1Cl (single isomer, unassigned) [Compound 25]

## Result
16.1
52.1
23.4
29.5
36.6
25.4
32.9

###

Test system: male mice (ICR)
Test: Muscle relaxation: wire hang
Assay type: in vivo
Conditions: Mus musculus; intraperitoneal, at time of maximum effect; 50% of activity vs vehicle only; read-out: MR test ED50, IV = Wire hang
Binarize ED50 at 40 mg/kg; below is Condition met, at or above is Condition not met.

## Task For this molecule, is ED50 lower than 40 mg/kg? CCCNC(=O)O[C@H](C)[C@H](O)c1ccccc1Cl [Compound 23]
## Result Condition not met

###

Record form. Attribute: ED50. Fill in for each entry.
System: male mice (ICR)
Experiment: Muscle relaxation: residence time on rotarod rotating at fixed speed (15 r.p.m.)
Assay type: in vivo
Details: Mus musculus, ip; intraperitoneal, at time of maximum effect; 50% of activity vs vehicle only; read-out: MR test ED50, II = Fixed 15 r.p.m. Rotarod
Record the result as number plus unit.

Worked cases, answers included:
# compound, test_result
measured = [
    ("CCCNC(=O)O[C@@H](C)[C@@H](O)c1ccccc1Cl", "61.6 mg/kg"),
    ("CC(OC(N)=O)C(O)c1ccccc1Cl (racemic)", "47.7 mg/kg"),
]

Hey, can you go through the list below and give me ED50 for every item?
1. C[C@H](OC(N)=O)[C@H](O)c1ccccc1Cl
2. C[C@H](OC(N)=O)[C@@H](O)c1ccccc1Cl
3. C[C@H](OC(=O)NC1CC1)[C@@H](O)c1ccccc1Cl

## Result
65.5 mg/kg
23.3 mg/kg
61.2 mg/kg
